Collected M07e-hPD-1 cell proliferation ratio (%) at 1000 nM values appear next to each entry.
experimental_target: human PD-1 (human, UniProt Q15116 25-288)
Sequence (Q15116 25-288 limits assumed): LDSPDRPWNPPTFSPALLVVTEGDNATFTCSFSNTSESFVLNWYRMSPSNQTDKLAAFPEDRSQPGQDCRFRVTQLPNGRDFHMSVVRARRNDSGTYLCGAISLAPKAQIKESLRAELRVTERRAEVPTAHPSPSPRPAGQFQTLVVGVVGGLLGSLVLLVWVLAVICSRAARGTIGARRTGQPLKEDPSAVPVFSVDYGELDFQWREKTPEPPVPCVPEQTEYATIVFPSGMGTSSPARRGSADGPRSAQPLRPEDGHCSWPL
protocol_details: cell-based or functional assay
// units = %; emit number, no label

Recorded results for 3 binders are shown here.
A-N88D-M28 (Fc fusion, not shown: IgG1 hinge (C220S) + Fc Knob chain as in A-N88D; IgG1 hinge (C220S) + Fc Hole chain as in A-N88D) chain (part 1 of 2): EVQLVESGGGLVQPGGSLRLSCAASGLTFSSYSMSWYRQAPGKGRELVAIISGSGGITHYADSVKGRFTISRDNAKNTLYLQMRSLRAEDTAVYYCRAVSDWQDYWGQGTQVTVSS chain (part 2 of 2): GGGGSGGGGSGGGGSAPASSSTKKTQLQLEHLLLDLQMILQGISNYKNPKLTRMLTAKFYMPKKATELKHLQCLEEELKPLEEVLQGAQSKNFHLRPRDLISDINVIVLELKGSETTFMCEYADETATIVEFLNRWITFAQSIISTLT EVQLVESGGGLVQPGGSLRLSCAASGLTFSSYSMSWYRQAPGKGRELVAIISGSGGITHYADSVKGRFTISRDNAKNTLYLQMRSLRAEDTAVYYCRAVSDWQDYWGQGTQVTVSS; 51.3
A-PC (Fc fusion, also called positive control molecule A-PC; PD-1-IL-2v; not shown: IgG1 hinge (C220S) + Fc Knob chain (L234A, L235A, S354C, T366W, EU); D356/L358 or E356/M358 ver; IgG1 hinge (C220S) + Fc Hole chain (L234A, L235A, Y349C, T366S, L368A, Y407V; may have H435R, Y436F; EU)) chain (part 1 of 2): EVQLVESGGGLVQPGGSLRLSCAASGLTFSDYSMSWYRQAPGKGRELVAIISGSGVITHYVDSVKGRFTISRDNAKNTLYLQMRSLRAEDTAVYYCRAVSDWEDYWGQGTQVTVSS chain (part 2 of 2): GGGGSGGGGSGGGGSAPASSSTKKTQLQLEHLLLDLQMILQGISNYKNPKLTRMLTAKFYMPKKATELKHLQCLEEELKPLEEVLQGAQSKNFHLRPRDLISNINVIVLELKGSETTFMCEYADETATIVEFLNRWITFAQSIISTLT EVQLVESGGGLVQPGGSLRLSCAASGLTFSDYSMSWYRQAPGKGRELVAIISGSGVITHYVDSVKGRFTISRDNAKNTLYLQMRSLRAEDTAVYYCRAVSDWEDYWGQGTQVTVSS; 100
A-N88D-M08 (Fc fusion, also called A-N88D-M8; not shown: IgG1 hinge (C220S) + Fc Knob chain as in A-N88D; IgG1 hinge (C220S) + Fc Hole chain as in A-N88D) chain (part 1 of 2): EVQLVESGGGLVQPGGSLRLSCAASGLTFSDYSMSWYRQAPGKGRELVAIISGSGVITHYVDSVKGRFTISRDNAKNTLYLQMRSLRAEDTAVYYCRAVSDWQDYWGQGTQVTVSS chain (part 2 of 2): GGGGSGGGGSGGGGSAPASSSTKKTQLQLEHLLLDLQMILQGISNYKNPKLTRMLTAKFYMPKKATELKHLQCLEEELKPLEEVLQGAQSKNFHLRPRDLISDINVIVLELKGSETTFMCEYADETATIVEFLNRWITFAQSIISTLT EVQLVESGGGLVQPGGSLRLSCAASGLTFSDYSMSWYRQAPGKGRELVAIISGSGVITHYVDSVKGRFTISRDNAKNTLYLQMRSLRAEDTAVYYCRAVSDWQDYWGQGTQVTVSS; 44.2

Recorded result, A-N88D-M27 (Fc fusion, not shown: IgG1 hinge (C220S) + Fc Knob chain as in A-N88D; IgG1 hinge (C220S) + Fc Hole chain as in A-N88D) chain (part 1 of 2): EVQLVESGGGLVQPGGSLRLSCAASGLTFSSYSMSWYRQAPGKGRELVAIISGSGGITHYVDSVKGRFTISRDNAKNTLYLQMRSLRAEDTAVYYCRAVSDWQDYWGQGTQVTVSS chain (part 2 of 2): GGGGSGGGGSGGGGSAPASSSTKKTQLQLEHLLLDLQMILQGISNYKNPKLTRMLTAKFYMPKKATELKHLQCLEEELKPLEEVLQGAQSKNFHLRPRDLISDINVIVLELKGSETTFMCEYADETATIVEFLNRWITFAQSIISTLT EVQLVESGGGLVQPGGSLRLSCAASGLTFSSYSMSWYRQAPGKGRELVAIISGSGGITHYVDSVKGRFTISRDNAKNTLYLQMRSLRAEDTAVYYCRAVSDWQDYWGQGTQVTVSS , M07e-hPD-1 cell proliferation ratio (%) at 1000 nM: 60

Recorded result, A-N88D-M15 (Fc fusion, not shown: IgG1 hinge (C220S) + Fc Knob chain as in A-N88D; IgG1 hinge (C220S) + Fc Hole chain as in A-N88D) chain (part 1 of 2): EVQLVESGGGLVQPGGSLRLSCAASGLTFSDYSMSWYRQAPGKGRELVAIISGSGGITHYVDSVKGRFTISRDNAKNTLYLQMRSLRAEDTAVYYCRAVSDWEDYWGQGTQVTVSS chain (part 2 of 2): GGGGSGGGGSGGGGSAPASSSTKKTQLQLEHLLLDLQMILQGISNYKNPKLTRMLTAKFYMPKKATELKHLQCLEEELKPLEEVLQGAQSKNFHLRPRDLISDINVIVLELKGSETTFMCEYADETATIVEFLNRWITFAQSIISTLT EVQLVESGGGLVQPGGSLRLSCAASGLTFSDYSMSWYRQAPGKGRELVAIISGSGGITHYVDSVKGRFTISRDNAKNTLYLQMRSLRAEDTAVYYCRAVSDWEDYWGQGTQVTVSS , M07e-hPD-1 cell proliferation ratio (%) at 1000 nM: 47.7

Recorded result, A-N88D (Fc fusion, also called PD-1-IL-2v (N88D); not shown: IgG1 hinge (C220S) + Fc Knob chain (L234A, L235A, S354C, T366W, EU); D356/L358 or E356/M358 ver; IgG1 hinge (C220S) + Fc Hole chain (L234A, L235A, Y349C, T366S, L368A, Y407V; may have H435R, Y436F; EU)) chain (part 1 of 2): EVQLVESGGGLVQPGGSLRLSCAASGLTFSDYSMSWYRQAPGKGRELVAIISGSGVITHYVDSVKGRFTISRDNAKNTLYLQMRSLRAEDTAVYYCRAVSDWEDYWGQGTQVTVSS chain (part 2 of 2): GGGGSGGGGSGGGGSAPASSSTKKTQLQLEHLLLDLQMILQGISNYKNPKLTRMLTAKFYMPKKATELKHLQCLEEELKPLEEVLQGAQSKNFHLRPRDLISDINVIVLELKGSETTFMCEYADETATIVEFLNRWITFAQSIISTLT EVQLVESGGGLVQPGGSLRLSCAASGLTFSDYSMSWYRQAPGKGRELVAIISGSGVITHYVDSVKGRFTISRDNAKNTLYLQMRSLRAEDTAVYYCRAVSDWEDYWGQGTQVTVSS , M07e-hPD-1 cell proliferation ratio (%) at 1000 nM: 55.4

Recorded result, A-N88D-M26 (Fc fusion, not shown: IgG1 hinge (C220S) + Fc Knob chain as in A-N88D; IgG1 hinge (C220S) + Fc Hole chain as in A-N88D) chain (part 1 of 2): EVQLVESGGGLVQPGGSLRLSCAASGLTFSSYSMSWYRQAPGKGRELVAIISGSGGITHYVDSVKGRFTISRDNAKNTLYLQMRSLRAEDTAVYYCRAVSDWEDYWGQGTQVTVSS chain (part 2 of 2): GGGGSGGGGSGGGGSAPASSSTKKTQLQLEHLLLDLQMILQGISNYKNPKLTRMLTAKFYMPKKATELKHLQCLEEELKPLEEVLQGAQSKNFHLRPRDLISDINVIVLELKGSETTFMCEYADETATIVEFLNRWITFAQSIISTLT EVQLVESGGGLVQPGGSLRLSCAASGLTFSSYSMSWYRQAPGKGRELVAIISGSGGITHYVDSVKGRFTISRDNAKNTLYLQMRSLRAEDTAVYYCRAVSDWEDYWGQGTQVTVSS , M07e-hPD-1 cell proliferation ratio (%) at 1000 nM: 54.4
